Each entry below lists one item and its recorded TGI value.
# System: HCC-2998 colon
# assayInfo: NCI tumour cell line growth inhibition, 48 h

O=C(O)c1c[nH]c2c(=O)[nH]cnc12    > 100 µM
C=C1C(=O)O[C@H]2[C@H]1CC/C(Cn1cc(CNCCc3c[nH]c4ccc(Cl)cc34)nn1)=C\CC[C@@]1(C)O[C@@H]21    44.6 µM
O=C1c2ccccc2C(=O)C2C1C1C(=O)c3ccccc3C(=O)C21 (stereo not drawn)    > 100 µM
O=c1oc2cc(N=Cc3ccccc3Cl)ccc2c2ccccc12    > 100 µM
O=C(/C=C/C12c3ccccc3C(c3ccccc31)C1C(=O)N(c3ccccc3)C(=O)C12)c1ccc(Cl)cc1 (stereo not drawn)    3.66 µM

[Q] Entry under review: Nc1ccc2c(c1)C1=NNC(=O)CC1C2 (stereo not drawn) . Reported TGI?
[A] > 100 µM

[Q] Field entry: Nc1nc(Cl)c(N)c(NCC2(CO)CC(Cc3ccccc3)C2)n1 (stereo not drawn)
[A] > 100 µM

[Q] Field entry: COC(=O)C1=C(OC(=O)/C(=C/c2ccc(Cl)cc2Cl)c2ccc(Cl)cc2Cl)C(C(=O)OC)[C@@]2(O)[C@@H](C(=O)OC)[C@H](C)C[C@@H]1[C@@H]2C(=O)OC (stereo partly drawn)
[A] > 100 µM

* * *

# System: MDA-MB-231 breast
# assayInfo: NCI tumour cell line growth inhibition, 48 h
Each entry below lists one item and its recorded TGI value.

The cases that follow already have their TGI on record.
COc1cc2ccccc2c2cc([N+](=O)[O-])oc12    5.8 µM
Cc1oc2nc[nH]c(=O)c2c1C(=O)/C=C/c1ccc(Cl)cc1    14.6 µM
C[C@@]12c3c4ccc(C=O)c3Oc3ccc(C=O)c(c31)Oc1c(C=O)ccc(c12)O4    > 100 µM
CN(C)CCNc1ccc2ncnc3c2c1C(=O)c1ccccc1-3    4.1 µM
COC(=O)C1=C(OC(=O)/C(=C/c2ccc(Cl)cc2Cl)c2ccc(Cl)cc2Cl)C(C(=O)OC)[C@@]2(O)[C@@H](C(=O)OC)[C@H](C)C[C@@H]1[C@@H]2C(=O)OC (some centres undefined)    > 100 µM
Nc1nc(Cl)c(N)c(NCC2(CO)CC(Cc3ccccc3)C2)n1 (centres undefined)    > 100 µM
O=C(/C=C/c1ccccc1)c1c[nH]c2ccccc2c1=O    18.7 µM
Cn1cc(C2=C(c3c4n(c5ccccc35)CCCC4)C(=O)NC2=O)c2ccccc21    > 25 µM

// next entry
[Q] Entry under review: CCCCCCCC(=O)OC[n+]1ccc(-c2c(COC(=O)NC(C)C)c(COC(=O)NC(C)C)c3n2CCC3)cc1 . Reported TGI?
[A] > 100 µM

* * *

# Tested on: 786-0 renal
# assayInfo: NCI tumour cell line growth inhibition, 48 h
observationType: TGI

The cases that follow already have their TGI on record.
CC1CC(=O)Nc2cc(Cl)ccc2N1C(=O)C1CC1 (stereo unspecified)    > 100 µM
COc1ccc(CN2C(=O)C(Cc3cc(OC)c(OC)c(C)c3OC)NC(=O)/C2=C/c2cc(OC)c(OC)c(C)c2OC)cc1 (stereo unspecified)    > 100 µM
O=C(CC(=O)C(=O)Nc1ccccc1)CC(c1ccccc1)c1c(O)c2ccccc2oc1=O (stereo unspecified)    > 100 µM
CC(C)(C)[Si](C)(C)OCC1CCC(n2cnc3c(=O)[nH]cnc32)O1 (stereo unspecified)    > 100 µM
C=C(C)C#CC(O)(C(=O)OC1CCN(C)CC1)C(C)C (stereo unspecified)    > 100 µM
O=C1CSC(/C(=C/c2ccccc2)c2nc3ccccc3[nH]2)=N1    > 100 µM
O=S(=O)(Nc1cc(Br)c(O)c2ccccc12)c1ccc(F)cc1    11.3 µM
Cc1cc(=O)oc2c(CN3CCCCC3)c(O)ccc12    > 100 µM
Cc1c(/C=N/NC(=S)Nc2cccc(Cl)c2)c(=O)n(-c2ccccc2)n1C    37 µM
Cc1nc2ccccc2c(=O)n1/N=C(\N=Nc1cc(Cl)ccc1Cl)c1cccc(-c2ccco2)c1    > 100 µM

[Q] Entry under review: CC(=O)OCCOCNC(=S)N/N=C/c1ccc2ccccc2n1 . Reported TGI?
[A] > 100 µM

[Q] Field entry: O=C(/C=C/c1ccccc1)c1c[nH]c2ccccc2c1=O
[A] 17.2 µM

[Q] Field entry: CC1(C)OC(=O)[C@@](C)([C@H](O)c2ccccc2)O1
[A] > 100 µM

[Q] Field entry: COc1cc(N2CCN(C(C)C)CC2)ccc1Nc1nc(Nc2cccc3ncccc23)c2cc[nH]c2n1
[A] 12.4 µM

[Q] Field entry: O=C(CBr)N1CCC2(CC1)SSC1(CCN(C(=O)CBr)CC1)S2
[A] 1.81 µM

[Q] Field entry: C=CCC1C(=O)C(C(=O)OC)N2CCc3c([nH]c4ccccc34)C12 (stereo unspecified)
[A] > 100 µM

* * *

# Tested on: COLO 205 colon
# assayInfo: NCI tumour cell line growth inhibition, 48 h
Each entry below lists one item and its recorded GI50 value.

The cases that follow already have their GI50 on record.
Oc1c(C(Nc2cccc3ccccc23)c2ccccc2)ccc2cccnc12 (stereo not drawn)    4.17 µM
COc1ccc(-c2nn(-c3ccc(NC(=O)c4ccc(Cl)c(C(F)(F)F)c4)cc3)cc2-c2ccncc2)cc1Cl    1.27 µM
O=C(CCCn1c(=O)c2sc3ccccc3c2n2nnc(-c3ccccc3)c12)NCCc1cnc[nH]1    1.1 µM
COc1cc(-c2n/c(=C\c3c(O)[nH]c4ccc(Cl)cc34)cc3c2=Nc2ccccc2-3)cc(OC)c1OC    1.35 µM
CN1CCN(c2ccc(-c3ccc4ncc(C#N)c(Nc5ccc(F)c(Cl)c5)c4c3)cc2)CC1    1.92 µM

[Q] Entry under review: Cc1cc2cccnc2c2ncccc12 . Reported GI50?
[A] 3.4 µM

[Q] Field entry: COc1ccc(Cl)cc1Nc1nc(C(F)(F)F)ccc1C(=O)N/N=C/c1ccc([N+](=O)[O-])cc1
[A] 1.65 µM

[Q] Field entry: CCOC(=O)C1=C(C)NC2SC(=O)/C(=C\c3ccccc3Cl)N2C1c1ccccc1 (stereo not drawn)
[A] > 100 µM

* * *

# Tested on: MDA-MB-231 breast
# assayInfo: NCI tumour cell line growth inhibition, 48 h
observationType: TGI

NC(C/[N+]([O-])=N/O)C(=O)O (stereo not drawn)    > 500 µM
CC1CC(C)[C@H](O)C([C@H](O)CC2CC(=O)N(C)C(=O)C2)C1 (stereo partly drawn)    > 100 µM

// next entry
[Q] Entry under review: O=C(COc1ccc(/C=C2\Oc3ccccc3C2=O)cc1)Nc1nccs1 . Reported TGI?
[A] > 100 µM

* * *

# Test system: NCI/ADR-RES ovarian
# assayInfo: NCI tumour cell line growth inhibition, 48 h
observationType: TGI

The cases that follow already have their TGI on record.
COC(=O)c1ccc(Oc2nc3ccccc3nc2-c2cccs2)cc1    > 100 µM
COc1ccc(NS(=O)c2ccc(-c3ccccc3)cc2)cc1 (stereo not drawn)    > 100 µM
Cc1csc(/C=N/NC(=O)c2nnn(-c3ccnc4c(C(F)(F)F)cccc34)c2C)c1    > 100 µM
O=[N+]([O-])c1ccc(N=Nc2c(O)ccc3cc(S(=O)(=O)O)ccc23)cc1    > 100 µM
CCSc1c(C)c2c(n(Cc3ccc(OC)cc3)c1=O)Cc1ccccc1C2    74.5 µM
COc1cc(-c2nn(-c3ccc(NC(=O)Nc4ccc(Cl)c(Cl)c4)cc3)cc2-c2ccncc2)ccc1Cl    > 100 µM
CN(C)CCNc1ccc2ncnc3c2c1C(=O)c1ccccc1-3    5.28 µM

// next entry
[Q] Entry under review: CC(NC(=O)C(OC(=O)C(C)NC(=O)OC(C)(C)C)C(C)C)C(=O)OC(C(=O)O)C(C)C (stereo not drawn) . Reported TGI?
[A] > 100 µM

* * *

# Test system: UACC-257 melanoma
# assayInfo: NCI tumour cell line growth inhibition, 48 h
observationType: TGI

The cases that follow already have their TGI on record.
Cc1cc(C)nc(NS(=O)(=O)c2ccc(NN=c3c4ccccc4n(C)c4ccccc34)cc2)n1    > 100 µM
CC1(C)C(c2ccccc2)C12CCC1(C2=O)C(c2ccccc2)C1(C)C (configuration not stated)    37.4 µM
O[C@@]1(c2cccs2)c2cccc(Cl)c2[C@](O)(c2cccs2)c2cccc(Cl)c21    30.3 µM
O=c1oc2cc(N=Cc3ccccc3Cl)ccc2c2ccccc12    > 100 µM
Cc1ccc(N/C(Sc2ccccc2)=C(/C(Cl)=C(Cl)Cl)[N+](=O)[O-])c(C)c1    38.2 µM
O=C1c2ccccc2C(=O)C2C1C1C(=O)c3ccccc3C(=O)C21 (configuration not stated)    > 100 µM

[Q] Entry under review: CC1=CCC2(C#N)CCC1C2O (configuration not stated) . Reported TGI?
[A] > 100 µM

[Q] Field entry: O=C(c1ccco1)C1CC(c2ccc3ccccc3c2O)=NN1 (configuration not stated)
[A] > 100 µM

[Q] Field entry: N#Cc1nc(C2CC2)oc1N
[A] > 100 µM

[Q] Field entry: Cn1c(NN)nc(-c2ccc([N+](=O)[O-])cc2)c(C#N)c1=O
[A] 29.1 µM

[Q] Field entry: C=C[C@@H](OCOCC[Si](C)(C)C)[C@@H](CC)OC(CCCOC(=O)C(C)(C)C)OC (some centres not stated)
[A] > 100 µM

[Q] Field entry: NCC[Se][Se]CCN
[A] 20.4 µM

[Q] Field entry: COc1cc([N+](=O)[O-])c(S(=O)(=O)O)cc1NS(=O)(=O)c1ccc(C)cc1
[A] > 100 µM

[Q] Field entry: Nc1nc(N)c(C2=CCN(Cc3ccccc3)CC2)c(=O)[nH]1
[A] > 100 µM

[Q] Field entry: Clc1cc(OCc2nn3c(Cc4ccccc4)nnc3s2)ccc1OCc1nn2c(Cc3ccccc3)nnc2s1
[A] > 100 µM
